details: buffer, pH 7.4, 1 h, 100 µM
Property: Kinetic_solubility (µM)

Sample records with Kinetic_solubility:
Cpd smiles | Reading
O=C(c1n[nH]c2cc(F)ccc12)N1CCC(c2ccccc2C(F)(F)F)CC1 | 3
COc1ccc2nnc(C(=O)N3C[C@H]4C[C@@H](c5ccccc5C(F)(F)F)C[C@H]4C3)n2c1 | 4.5
O=C(c1cn2ncccc2n1)N1CCC(c2ccccc2C(F)(F)F)CC1 | 83
Cn1nc(C(=O)N2CCC(c3ccccc3C(F)(F)F)CC2)c2ccccc21 | 3.6
O=C(c1nc2ccccc2o1)N1CCC(c2ccccc2C(F)(F)F)CC1 | 2.9
O=C(c1cn2nc(N3CCOCC3)ccc2n1)N1CCC(c2ccccc2C(F)(F)F)CC1 | 47
N#Cc1ccc2nnc(C(=O)N3CCC(c4ccc(F)cc4C(F)(F)F)CC3)n2c1 | 31
O=C(c1nnc2ccc(Cl)cn12)N1CCC(c2ccccc2C(F)(F)F)CC1 | 11

[a] O=C(c1cn2nc(N3CCCC3)ccc2n1)N1CCC(c2ccccc2C(F)(F)F)CC1
[b] O=C(c1nnc2ccc(F)cn12)N1CCC(c2ccccc2C(F)(F)F)CC1
[c] COc1ccc2nnc(C(=O)N3CCC(c4ccccc4C(F)(F)F)CC3)n2c1
[d] Cc1ccc2nc(C(=O)N3CCC(c4ccccc4C(F)(F)F)CC3)cn2n1
Endpoint returns the given compounds ordered by ascending Kinetic_solubility. Write the labels out in the order the request specifies.
a, b, c, d
(a: 5.6 µM, b: 8 µM, c: 25 µM, d: 72 µM)

* * *

settings: buffer, pH 7.4, 1 h, 100 µM
# Kinetic_solubility values compiled below

Cpd smiles | Kinetic_solubility
O=C(c1n[nH]c2cc(Cl)ccc12)N1CCC(c2ccccc2C(F)(F)F)CC1 | < 1.6 µM
O=C(c1nnc2ccc(Cl)cn12)N1C[C@H]2C[C@@H](c3ccccc3C(F)(F)F)C[C@H]2C1 | < 1.6 µM

With those in mind, consider the next compound.
What value of Kinetic_solubility has been reported for the following compound? O=C(c1nnc2ccc(C(F)(F)F)cn12)N1C[C@H]2C[C@@H](c3ccccc3C(F)(F)F)C[C@H]2C1
< 1.6 µM

Origin of the recorded values: ChEMBL document CHEMBL4304746
